Assay: Tmax of aliskiren hemifumarate following 4 week oral dietary dosing of aliskiren hemifumarate at 1500 mg.Kg-1 level in female mouse
Type: ADME, organism-based
Details: CB6F1-TGrasH2, mouse, in vivo

Compound: COCCCOc1cc(C[C@@H](C[C@H](N)[C@@H](O)C[C@H](C(=O)NCC(C)(C)C(N)=O)C(C)C)C(C)C)ccc1OC.COCCCOc1cc(C[C@@H](C[C@H](N)[C@@H](O)C[C@H](C(=O)NCC(C)(C)C(N)=O)C(C)C)C(C)C)ccc1OC.O=C(O)/C=C/C(=O)O [ALISKIREN FUMARATE]
Tmax [min]: 30

###

Target: CYP2A6 (Homo sapiens)
Sequence (P11509 whole entry): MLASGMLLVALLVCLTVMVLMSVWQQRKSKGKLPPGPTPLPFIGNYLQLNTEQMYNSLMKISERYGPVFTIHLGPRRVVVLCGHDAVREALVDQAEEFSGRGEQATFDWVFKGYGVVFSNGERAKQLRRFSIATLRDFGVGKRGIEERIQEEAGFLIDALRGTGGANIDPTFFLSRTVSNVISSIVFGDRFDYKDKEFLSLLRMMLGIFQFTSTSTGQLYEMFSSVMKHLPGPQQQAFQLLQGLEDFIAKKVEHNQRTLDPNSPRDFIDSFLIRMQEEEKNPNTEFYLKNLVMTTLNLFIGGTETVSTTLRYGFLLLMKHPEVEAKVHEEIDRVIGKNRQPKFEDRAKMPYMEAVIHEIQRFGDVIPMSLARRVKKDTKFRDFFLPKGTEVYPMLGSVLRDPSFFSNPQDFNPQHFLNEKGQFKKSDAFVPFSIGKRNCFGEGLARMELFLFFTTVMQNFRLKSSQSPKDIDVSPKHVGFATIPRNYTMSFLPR
Test: in vitro
Settings: probe coumarine

Structure smiles: N[C@@H]1C[C@H]1c1ccccc1.N[C@H]1C[C@@H]1c1ccccc1
inhibition at 100 µM (%): 97

###

Assay: Oral clearance of SPP100 following single oral dose of SPP100 300 mg capsule studied in healthy human
Type: ADME, organism-based
Conditions: plasma

Structure smiles: COCCCOc1cc(C[C@@H](C[C@H](N)[C@@H](O)C[C@H](C(=O)NCC(C)(C)C(N)=O)C(C)C)C(C)C)ccc1OC
CL/F: 4230 mL/min

###

Molecular target: hERG (KCNH2) (Homo sapiens)
Sequence (Q12809 whole entry): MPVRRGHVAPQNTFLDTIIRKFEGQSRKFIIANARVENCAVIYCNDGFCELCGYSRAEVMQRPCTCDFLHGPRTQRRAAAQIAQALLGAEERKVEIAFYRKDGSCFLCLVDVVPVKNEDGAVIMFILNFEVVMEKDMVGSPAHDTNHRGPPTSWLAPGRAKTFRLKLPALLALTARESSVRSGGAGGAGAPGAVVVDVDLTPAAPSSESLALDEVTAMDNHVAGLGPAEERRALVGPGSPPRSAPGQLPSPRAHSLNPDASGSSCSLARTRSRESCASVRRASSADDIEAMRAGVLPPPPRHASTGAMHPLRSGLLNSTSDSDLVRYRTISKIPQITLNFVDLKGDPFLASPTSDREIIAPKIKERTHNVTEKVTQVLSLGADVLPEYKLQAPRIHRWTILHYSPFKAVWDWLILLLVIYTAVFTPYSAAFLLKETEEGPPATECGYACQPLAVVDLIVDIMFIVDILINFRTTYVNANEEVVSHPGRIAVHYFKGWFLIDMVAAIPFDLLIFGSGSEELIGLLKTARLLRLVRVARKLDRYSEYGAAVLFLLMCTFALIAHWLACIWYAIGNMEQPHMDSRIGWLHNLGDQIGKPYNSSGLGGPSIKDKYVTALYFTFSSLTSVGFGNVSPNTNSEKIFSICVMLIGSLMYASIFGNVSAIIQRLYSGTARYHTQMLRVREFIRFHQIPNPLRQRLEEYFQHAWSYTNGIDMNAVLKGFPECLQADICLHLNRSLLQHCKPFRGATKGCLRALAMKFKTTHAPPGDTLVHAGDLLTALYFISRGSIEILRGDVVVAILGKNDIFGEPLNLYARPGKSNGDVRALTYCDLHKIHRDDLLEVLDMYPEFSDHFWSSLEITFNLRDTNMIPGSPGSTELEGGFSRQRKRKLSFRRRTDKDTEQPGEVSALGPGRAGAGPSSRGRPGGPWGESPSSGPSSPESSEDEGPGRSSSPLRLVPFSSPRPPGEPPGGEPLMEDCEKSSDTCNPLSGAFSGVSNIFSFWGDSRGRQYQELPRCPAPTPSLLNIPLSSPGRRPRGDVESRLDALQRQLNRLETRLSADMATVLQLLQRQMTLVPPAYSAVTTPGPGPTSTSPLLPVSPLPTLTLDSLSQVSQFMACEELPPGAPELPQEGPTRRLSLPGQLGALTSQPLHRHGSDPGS
Test: Effects of 100 uM aliskiren hemifumarate on current through cloned hERG channel expressed in human embryonic kidney cell
Assay type: cell-based
Design: conc 100 uM, dose level Intermediate
Settings: HEK293 cells that express cloned hERG channel, read-out: Inhibitory activity

Compound: COCCCOc1cc(C[C@@H](C[C@H](N)[C@@H](O)C[C@H](C(=O)NCC(C)(C)C(N)=O)C(C)C)C(C)C)ccc1OC.COCCCOc1cc(C[C@@H](C[C@H](N)[C@@H](O)C[C@H](C(=O)NCC(C)(C)C(N)=O)C(C)C)C(C)C)ccc1OC.O=C(O)/C=C/C(=O)O [ALISKIREN FUMARATE]
Measured on: hERG (KCNH2) (Homo sapiens)
inhibition at 100 µM (%): 6

###

Test: Cmax of radioactivity following repeated oral administration of [14C] aliskiren hemifumarate at 100 mg.Kg-1 level studied after 2h of dosing on day 10 in rat
Assay type: ADME, organism-based, Albino HAN:WIST
Conditions: in vivo, read-out: Cmax(10)

Structure smiles: COCCCOc1cc(C[C@@H](C[C@H](N)[C@@H](O)C[C@H](C(=O)NCC([14CH3])([14CH3])C(N)=O)C(C)C)C(C)C)ccc1OC.O=C(O)/C=C/C(=O)O
Unit descriptor: nM
Cmax: 473

###

Test: Cmax of aliskiren hemifumarate following 2 week oral dosing of aliskiren hemifumarate at 100 mg.Kg-1 level studied on day 14 in male Callithrix jacchus
Type: ADME, organism-based
Settings: marmoset, plasma

Molecule: COCCCOc1cc(C[C@@H](C[C@H](N)[C@@H](O)C[C@H](C(=O)NCC(C)(C)C(N)=O)C(C)C)C(C)C)ccc1OC.COCCCOc1cc(C[C@@H](C[C@H](N)[C@@H](O)C[C@H](C(=O)NCC(C)(C)C(N)=O)C(C)C)C(C)C)ccc1OC.O=C(O)/C=C/C(=O)O [ALISKIREN FUMARATE]
Unit descriptor: ng/mL
Cmax: 9670

###

Assay: AUC(0-24h) of aliskiren hemifumarate following 2 week oral dosing of aliskiren hemifumarate at 50 mg.Kg-1 level studied on day 1 in female Callithrix jacchus
Type: ADME, organism-based
Conditions: marmoset, plasma

Compound: COCCCOc1cc(C[C@@H](C[C@H](N)[C@@H](O)C[C@H](C(=O)NCC(C)(C)C(N)=O)C(C)C)C(C)C)ccc1OC.COCCCOc1cc(C[C@@H](C[C@H](N)[C@@H](O)C[C@H](C(=O)NCC(C)(C)C(N)=O)C(C)C)C(C)C)ccc1OC.O=C(O)/C=C/C(=O)O [ALISKIREN FUMARATE]
Unit descriptor: ng·h/mL
AUC(0-t) at 24 h: 56200

###

Target: CYP2C19 (Homo sapiens)
Sequence (P33261 whole entry): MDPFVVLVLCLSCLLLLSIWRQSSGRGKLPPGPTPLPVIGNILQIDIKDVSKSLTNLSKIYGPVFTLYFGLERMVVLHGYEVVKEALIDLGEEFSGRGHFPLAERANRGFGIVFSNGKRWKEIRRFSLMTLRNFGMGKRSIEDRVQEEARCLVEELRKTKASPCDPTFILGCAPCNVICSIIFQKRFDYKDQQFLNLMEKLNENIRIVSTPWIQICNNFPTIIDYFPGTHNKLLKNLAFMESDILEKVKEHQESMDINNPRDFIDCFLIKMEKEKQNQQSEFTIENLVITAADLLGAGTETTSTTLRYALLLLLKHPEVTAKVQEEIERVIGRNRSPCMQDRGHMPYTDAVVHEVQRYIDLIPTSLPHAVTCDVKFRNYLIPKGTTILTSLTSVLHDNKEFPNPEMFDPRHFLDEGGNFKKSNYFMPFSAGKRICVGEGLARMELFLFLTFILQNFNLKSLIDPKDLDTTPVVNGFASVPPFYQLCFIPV
Assay: Inhibitory activity of 200 uM SPP100 on 1375 Pmoles of cDNA-derived CYP2C19 enzyme in microsome prepared from human lymphoblastoid cell line
Assay type: ADME, microsomes
Parameters: conc 200 uM, interact cpd conc 50 uM
Details: probe (S)-mephenytoin (50 uM)

Structure smiles: COCCCOc1cc(C[C@@H](C[C@H](N)[C@@H](O)C[C@H](C(=O)NCC(C)(C)C(N)=O)C(C)C)C(C)C)ccc1OC
Measured on: CYP2C19 (Homo sapiens)
Unit descriptor: %
inhibition at 200 µM: -15.4

###

Test: Tmax (0-168h) of unlabeled aliskiren hemifumarate following single oral administration of aliskiren hemifumarate at 3 mg.Kg-1 level in marmoset
Assay type: ADME, organism-based, Callithrix jacchus
Conditions: plasma

Compound: COCCCOc1cc(C[C@@H](C[C@H](N)[C@@H](O)C[C@H](C(=O)NCC(C)(C)C(N)=O)C(C)C)C(C)C)ccc1OC.COCCCOc1cc(C[C@@H](C[C@H](N)[C@@H](O)C[C@H](C(=O)NCC(C)(C)C(N)=O)C(C)C)C(C)C)ccc1OC.O=C(O)/C=C/C(=O)O [ALISKIREN FUMARATE]
Tmax: 2 h

###

Experiment: t1/2 of aliskiren hemifumarate following 2 week oral dosing of aliskiren hemifumarate at 10 mg.Kg-1 level studied on […] in male Callithrix jacchus
Format: ADME, organism-based
Details: marmoset, plasma

Molecule: COCCCOc1cc(C[C@@H](C[C@H](N)[C@@H](O)C[C@H](C(=O)NCC(C)(C)C(N)=O)C(C)C)C(C)C)ccc1OC.COCCCOc1cc(C[C@@H](C[C@H](N)[C@@H](O)C[C@H](C(=O)NCC(C)(C)C(N)=O)C(C)C)C(C)C)ccc1OC.O=C(O)/C=C/C(=O)O [ALISKIREN FUMARATE]
half-life: 5.63 h

###

Assay: Tmax of aliskiren hemifumarate following 2 week oral dosing of aliskiren hemifumarate at 10 mg.Kg-1 level studied on day 1 in female Callithrix jacchus
Assay type: ADME, organism-based
Details: marmoset, plasma

Molecule: COCCCOc1cc(C[C@@H](C[C@H](N)[C@@H](O)C[C@H](C(=O)NCC(C)(C)C(N)=O)C(C)C)C(C)C)ccc1OC.COCCCOc1cc(C[C@@H](C[C@H](N)[C@@H](O)C[C@H](C(=O)NCC(C)(C)C(N)=O)C(C)C)C(C)C)ccc1OC.O=C(O)/C=C/C(=O)O [ALISKIREN FUMARATE]
Tmax / h: 1

###

Experiment: Tmax of aliskiren hemifumarate following 8 day once-daily dosing of SPP100B oral solution at 160 mg level studied on day 8 in men
Type: ADME, organism-based
Conditions: male, human, plasma

Compound: COCCCOc1cc(C[C@@H](C[C@H](N)[C@@H](O)C[C@H](C(=O)NCC(C)(C)C(N)=O)C(C)C)C(C)C)ccc1OC.COCCCOc1cc(C[C@@H](C[C@H](N)[C@@H](O)C[C@H](C(=O)NCC(C)(C)C(N)=O)C(C)C)C(C)C)ccc1OC.O=C(O)/C=C/C(=O)O [ALISKIREN FUMARATE]
Tmax (h): 4.1

###

Assay: Cmax of aliskiren hemifumarate following 2 week oral dosing of aliskiren hemifumarate at 100 mg.Kg-1 level studied on day 1 in female Callithrix jacchus
Type: ADME, organism-based
Conditions: marmoset, plasma
Outcome measure: Cmax (ng/mL)

Compound: COCCCOc1cc(C[C@@H](C[C@H](N)[C@@H](O)C[C@H](C(=O)NCC(C)(C)C(N)=O)C(C)C)C(C)C)ccc1OC.COCCCOc1cc(C[C@@H](C[C@H](N)[C@@H](O)C[C@H](C(=O)NCC(C)(C)C(N)=O)C(C)C)C(C)C)ccc1OC.O=C(O)/C=C/C(=O)O [ALISKIREN FUMARATE]
Experimental result: 7940

###

Assay: Tmax of aliskiren hemifumarate following 2 week oral dosing of aliskiren hemifumarate at 50 mg.Kg-1 level studied on day 14 in male Callithrix jacchus
Type: ADME, organism-based
Settings: marmoset, plasma

Compound: COCCCOc1cc(C[C@@H](C[C@H](N)[C@@H](O)C[C@H](C(=O)NCC(C)(C)C(N)=O)C(C)C)C(C)C)ccc1OC.COCCCOc1cc(C[C@@H](C[C@H](N)[C@@H](O)C[C@H](C(=O)NCC(C)(C)C(N)=O)C(C)C)C(C)C)ccc1OC.O=C(O)/C=C/C(=O)O [ALISKIREN FUMARATE]
Tmax (h): 2

###

Test: Tmax (0-96h) of unlabeled aliskiren hemifumarate following oral administration of aliskiren hemifumarate at 100 mg.Kg-1 level in rat
Type: ADME, organism-based
Conditions: Albino HAN:WIST, plasma

Molecule: COCCCOc1cc(C[C@@H](C[C@H](N)[C@@H](O)C[C@H](C(=O)NCC(C)(C)C(N)=O)C(C)C)C(C)C)ccc1OC.COCCCOc1cc(C[C@@H](C[C@H](N)[C@@H](O)C[C@H](C(=O)NCC(C)(C)C(N)=O)C(C)C)C(C)C)ccc1OC.O=C(O)/C=C/C(=O)O [ALISKIREN FUMARATE]
Unit descriptor: min
Tmax: 15
